Molecular target: T1, recombinant human activated Factor VII (FVIIa) (human, UniProt P08709 61-212; P08709 213-466, ten glutamate residues of the Gla domain may be gamma-carboxylated)
T1 construct: chains tethered by a disulfide bond; also called Factor VIIa; rFVIIa
T1 sequence 1: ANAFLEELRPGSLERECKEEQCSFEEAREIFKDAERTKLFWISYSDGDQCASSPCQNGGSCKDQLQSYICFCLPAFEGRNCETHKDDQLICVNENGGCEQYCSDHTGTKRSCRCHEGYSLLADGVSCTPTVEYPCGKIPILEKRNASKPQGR
T1 sequence 2: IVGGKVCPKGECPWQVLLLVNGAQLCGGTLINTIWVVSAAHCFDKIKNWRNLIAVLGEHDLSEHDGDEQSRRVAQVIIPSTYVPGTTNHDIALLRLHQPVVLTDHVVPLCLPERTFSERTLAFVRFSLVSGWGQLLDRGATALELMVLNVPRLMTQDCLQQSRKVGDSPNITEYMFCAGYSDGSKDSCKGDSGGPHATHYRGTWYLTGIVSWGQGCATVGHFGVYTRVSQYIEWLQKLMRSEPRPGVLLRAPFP
Assay: BLI (Fortebio)
Exercise: for every item that follows, state its recorded Kd.
Report only the number, with the unit nM understood.

Hello, please tell me recorded Kd for this one: VH SEQ ID NO 522 / VL SEQ ID NO 326 (antibody, IgG4, V domains shown, humanized 11F2; IgG4 S228P/kappa) VH: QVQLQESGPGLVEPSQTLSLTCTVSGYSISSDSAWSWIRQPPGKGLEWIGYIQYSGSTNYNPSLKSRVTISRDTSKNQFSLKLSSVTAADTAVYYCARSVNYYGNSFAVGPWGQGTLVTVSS VL: EIVLTQSPATLSLSPGERATLSCRASQGISDYLHWYQQKPGEAPRLLIKYTSQPATGIPARFSGSGSGTDFTLTISSLEPEDFGVYYCQNGHSFPLTFGAGTKLELK
0.81

Hello, please tell me recorded Kd for this one: VH SEQ ID NO 610 / VL SEQ ID NO 486 (antibody, IgG4, V domains shown, humanized 11F2; IgG4 S228P/kappa) VH: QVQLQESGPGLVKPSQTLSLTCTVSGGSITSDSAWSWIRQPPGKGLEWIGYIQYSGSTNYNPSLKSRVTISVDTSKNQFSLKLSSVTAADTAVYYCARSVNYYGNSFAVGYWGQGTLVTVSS VL: EIVLTQSPATLSLSPGERATLSCRASQGVSDYLHWYQQKPGQAPRLLIKYASQPATGIPARFSGSGSGTDFTLTISSLEPEDFGVYYCQNGHSFPLTFGQGTKLEIK
17

Hello, please tell me recorded Kd for this one: VH SEQ ID NO 530 / VL SEQ ID NO 374 (antibody, IgG4, V domains shown, humanized 11F2; IgG4 S228P/kappa) VH: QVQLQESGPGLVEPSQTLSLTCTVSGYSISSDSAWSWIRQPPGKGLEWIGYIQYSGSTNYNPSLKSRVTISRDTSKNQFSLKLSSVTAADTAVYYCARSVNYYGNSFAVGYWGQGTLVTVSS VL: EIVLTQSPATLSLSPGERATLSCRASQGLSDYLAWYQQKPGQAPRLLIKYTSQPATGIPARFSGSGSGTDFTLTISSLEPEDFAVYYCQNGHSFPLTFGQGTKLEIK
4.2

Hello, please tell me recorded Kd for this one: VH SEQ ID NO 562 / VL SEQ ID NO 470 (antibody, IgG4, V domains shown, humanized 11F2; IgG4 S228P/kappa) VH: QVQLQESGPGLVKPSDTLSLTCAVSGYSISSDSAWSWIRQPPGKGLEWIGYIQYSGSTNYNPSLKSRVTMSRDTSKNQFSLKLSSVTALDTAVYYCARSVNYYGNSFAVGPWGQGTLVTVSS VL: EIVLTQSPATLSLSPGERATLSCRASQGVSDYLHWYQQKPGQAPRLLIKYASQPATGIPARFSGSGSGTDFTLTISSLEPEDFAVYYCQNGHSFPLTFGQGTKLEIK
1.4

Hello, please tell me recorded Kd for this one: VH SEQ ID NO 650 / VL SEQ ID NO 318 (antibody, IgG4, V domains shown, humanized 11F2; IgG4 S228P/kappa) VH: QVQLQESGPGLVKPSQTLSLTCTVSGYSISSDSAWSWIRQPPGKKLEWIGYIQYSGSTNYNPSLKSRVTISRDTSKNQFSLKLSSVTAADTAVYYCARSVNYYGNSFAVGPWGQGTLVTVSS VL: EIVLTQSPATLSLSPGERATLSCRASQGISDYLHWYQQKPGEAPRLLIKYTSQPATGIPARFSGSGSGTDFTLTISSLEPEDFAVYYCQNGHSFPLTFGQGTKLEIK
1.2
